These measurements were taken from ChEMBL document CHEMBL3885881.

- Species on record: Rattus norvegicus
- assay.notes: DrugMatrix - Regimen: Daily Repeat
- Format: toxicity, organism-based, Sprague-Dawley
- Parameters: regimen Daily Repeat, gender Male, age 6-8 weeks
- protocol.conditions: in vivo, po, 10 mg/kg, 120 h, tissue Plasma, route oral GAVAGE, dose level Low, time 5 day, vehicle .5 % CMC
assay.endpoint: ALKALINE PHOSPHATASE (u/L)
Reply with just the number (in u/L).

O=C1CN=C(c2ccccc2)c2cc([N+](=O)[O-])ccc2N1 : 331.67

// query ALKALINE PHOSPHATASE value for entry CC(=O)O[C@]1(C(C)=O)CC[C@H]2[C@@H]3C=C(Cl)C4=CC(=O)CC[C@]4(C)[C@H]3CC[C@@]21C [CHLORMADINONE ACETATE] 380.67

// query ALKALINE PHOSPHATASE value for entry NS(=O)(=O)c1cc2c(cc1Cl)NCNS2(=O)=O [HYDROCHLOROTHIAZIDE] 390.67

// query ALKALINE PHOSPHATASE value for entry COc1c(C)c2c(c(O)c1C/C=C(\C)CCC(=O)OCCN1CCOCC1)C(=O)OC2 [MYCOPHENOLATE MOFETIL] 364.33

###

- Organism: Rattus norvegicus
- assay.notes: DrugMatrix - Regimen: Daily Repeat
- Assay type: toxicity, organism-based, Sprague-Dawley
- Design: regimen Daily Repeat, gender Male, age 6-8 weeks
- protocol.conditions: in vivo, iv, 0 mg/kg, 72 h, tissue Plasma, dose level Control, time 3 day, vehicle 100 % SALINE
assay.endpoint: CREATININE (mg/dL)
Reply with just the number (in mg/dL).

NCC[C@H](O)C(=O)N[C@@H]1C[C@H](N)[C@@H](O[C@H]2O[C@H](CN)[C@@H](O)[C@H](O)[C@H]2O)[C@H](O)[C@H]1O[C@H]1O[C@H](CO)[C@@H](O)[C@H](N)[C@H]1O : 0.17
CC[C@@]1(O)C(=O)OCc2c1cc1n(c2=O)Cc2cc3ccccc3nc2-1 : 0.2
CC1(C)S[C@@H]2[C@H](NC(=O)[C@H](NC(=O)N3CCNC3=O)c3ccccc3)C(=O)N2[C@H]1C(=O)O : 0.18

Attention now shifts to the item below.
// query CREATININE value for entry `CN(N=O)C(=O)N[C@@H](C=O)[C@@H](O)[C@H](O)[C@H](O)CO` 0.19

###

- Organism: Rattus norvegicus
- assay.notes: DrugMatrix - Regimen: Daily Repeat
- Format: toxicity, organism-based, Sprague-Dawley
- Design: regimen Daily Repeat, gender Male, age 6-8 weeks
- protocol.conditions: in vivo, po, 1500 mg/kg, 120 h, tissue Plasma, route oral GAVAGE, dose level High, time 5 day, vehicle .5 % CMC
Here, each record is paired with measured ALBUMIN data.
Reply with just the number (in G/DL).

// query ALBUMIN value for entry NS(=O)(=O)c1cc2c(cc1Cl)NCNS2(=O)=O [HYDROCHLOROTHIAZIDE] 4.33

// query ALBUMIN value for entry COC(=O)c1ccc(O)cc1 [METHYLPARABEN] 4.33

// query ALBUMIN value for entry `CCOC(=O)[C@H](CCc1ccccc1)N[C@@H](C)C(=O)N1[C@H](C(=O)O)C[C@@H]2CCC[C@@H]21` 4.33

// query ALBUMIN value for entry O=C1CCc2cc(OCCCCc3nnnn3C3CCCCC3)ccc2N1 [CILOSTAZOL] 3.67
